Source: PubChem BioAssay (Tox21)

# TEST_METHOD_NOTES: qHTS assay to identify small molecule agonists of H2AX (AID 1224845)
# CONDITION_NOTES: CHO-K1 phospho-H2AX Ser139 HTRF, 3 h; series mostly up to 154 µM
Records with an inconclusive call do not appear. Activity calls are given as the source filed them. Calls come from the whole dose curve; as a rule, active = well fitted activation curve with a large enough effect in the signal ratio in the repeat runs (not every such curve was filed as active); inconclusive = weak or mixed curves; inactive = flat fitted curve, though single readings scatter; the % refers to the signal ratio.
QUANTITY_KIND: outcome

MOLECULE: C=CC(=O)OCCC(=O)O
OBSERVED_RESULT: inactive
//
MOLECULE: CCO[Si](CCC#N)(OCC)OCC
OBSERVED_RESULT: inactive
//
MOLECULE: COCCOC(=O)c1ccccc1C(=O)OCCOC
OBSERVED_RESULT: inactive
//
MOLECULE: c1ccc(Oc2ccccc2)cc1
OBSERVED_RESULT: inactive
//
MOLECULE: C=CCCCCCCCCC(=O)O
OBSERVED_RESULT: inactive
//
MOLECULE: OCc1ccccc1
OBSERVED_RESULT: inactive
//
MOLECULE: CC(=O)OCc1ccco1
OBSERVED_RESULT: inactive
//
MOLECULE: CC(C)=CCl
OBSERVED_RESULT: inactive
//
MOLECULE: CCO[Si](CCCN)(OCC)OCC
OBSERVED_RESULT: inactive
//
MOLECULE: C=CCc1ccc(OC)c(OC)c1
OBSERVED_RESULT: inactive
//
MOLECULE: CCCCCCCO
OBSERVED_RESULT: inactive
//
MOLECULE: O=C1CCCC1
OBSERVED_RESULT: inactive
//
MOLECULE: CN1C(=O)CC[C@H]1c1cccnc1
OBSERVED_RESULT: inactive
//
MOLECULE: COCCCN
OBSERVED_RESULT: inactive
//
MOLECULE: CCCCCCC=O
OBSERVED_RESULT: inactive
//
MOLECULE: O=C(O)c1ccccc1C(=O)O
OBSERVED_RESULT: inactive
//
MOLECULE: C[C@]12CC[C@@H]3c4ccc(O)cc4CC[C@H]3[C@@H]1C[C@@H](O)[C@@H]2O
OBSERVED_RESULT: inactive
//
MOLECULE: CCCCCCO
OBSERVED_RESULT: inactive
//
MOLECULE: CC(C)CCCCCCCOC(=O)CCCCC(=O)OCCCCCCCC(C)C
OBSERVED_RESULT: inactive
//
MOLECULE: C=C(C)[C@H]1CC=C(C)C(=O)C1
OBSERVED_RESULT: inactive
//
MOLECULE: C=CC[N+](C)(C)CC=C
OBSERVED_RESULT: inactive
//
MOLECULE: CC(=O)c1ccc(O)cc1
OBSERVED_RESULT: inactive
//
MOLECULE: Cc1ccc(C(C)C)c(O)c1
OBSERVED_RESULT: inactive
//
MOLECULE: CC(C)c1cccc(C(C)C)c1
OBSERVED_RESULT: inactive
//
MOLECULE: CCCCCCCCCCCC(=O)OC
OBSERVED_RESULT: inactive
//
MOLECULE: CCOC(=O)n1ccn(C)c1=S
OBSERVED_RESULT: inactive
//
MOLECULE: CC(=O)CCC=C(C)C
OBSERVED_RESULT: inactive
//
MOLECULE: CC(C)(C#N)c1cc(Cn2cncn2)cc(C(C)(C)C#N)c1
OBSERVED_RESULT: inactive
//
MOLECULE: CNC(=S)N(C)C
OBSERVED_RESULT: inactive
//
MOLECULE: C[C@]12CCC(=O)C=C1CC[C@@H]1[C@@H]2[C@@H](O)C[C@@]2(C)[C@H]1CC[C@]2(O)C(=O)CO
OBSERVED_RESULT: inactive
//
MOLECULE: C=C(C)CNCC
OBSERVED_RESULT: inactive
//
MOLECULE: CC(CCl)OP(=O)(OC(C)CCl)OC(C)CCl (stereo unspecified)
OBSERVED_RESULT: inactive
//
MOLECULE: CC(=O)OCc1ccccc1
OBSERVED_RESULT: inactive
//
MOLECULE: O=C(O)c1ccc(C(=O)O)c(C(=O)O)c1
OBSERVED_RESULT: inactive
//
MOLECULE: CCNc1ccccc1
OBSERVED_RESULT: inactive
//
MOLECULE: CN(C)c1ccc(O)c2c1C[C@H]1C[C@H]3[C@H](N(C)C)C(=O)C(C(N)=O)=C(O)[C@@]3(O)C(=O)C1=C2O
OBSERVED_RESULT: inactive
//
MOLECULE: CCCCCCCCCCO
OBSERVED_RESULT: inactive
//
MOLECULE: COc1ccc(C)cc1N
OBSERVED_RESULT: inactive
//
MOLECULE: CCOCC(=O)O
OBSERVED_RESULT: inactive
//
MOLECULE: O=c1[nH]cnc2[nH]ncc12
OBSERVED_RESULT: inactive
//
MOLECULE: COc1ccc(CCC(C)=O)cc1
OBSERVED_RESULT: inactive
//
MOLECULE: C=C(C)C(=O)OCC(C)C
OBSERVED_RESULT: inactive
//
MOLECULE: O=C(O)/C=C/C(=O)O
OBSERVED_RESULT: inactive
//
MOLECULE: COc1ccc(OC)cc1
OBSERVED_RESULT: inactive
//
MOLECULE: CC(C)(C)c1cc(Cc2cc(C(C)(C)C)c(O)c(C(C)(C)C)c2)cc(C(C)(C)C)c1O
OBSERVED_RESULT: inactive
//
MOLECULE: C=CC(C)CCCC(C)(C)O (stereo unspecified)
OBSERVED_RESULT: inactive
//
MOLECULE: CC1(C)NC(=O)NC1=O
OBSERVED_RESULT: inactive
//
MOLECULE: CNC(=O)Oc1ccc2c(c1)[C@]1(C)CCN(C)[C@@H]1N2C
OBSERVED_RESULT: inactive
//
MOLECULE: CC(=O)Oc1ccc(C)cc1
OBSERVED_RESULT: inactive
//
MOLECULE: CC1(C)S[C@@H]2[C@H](NC(=O)COc3ccccc3)C(=O)N2[C@H]1C(=O)O
OBSERVED_RESULT: inactive
//
MOLECULE: CC(O)CC(C)(C)O (stereo unspecified)
OBSERVED_RESULT: inactive
//
MOLECULE: CCOCCOCCOCCO
OBSERVED_RESULT: inactive
//
MOLECULE: CCCCCCCCCCCCCCCCO
OBSERVED_RESULT: inactive
//
MOLECULE: O=S(=O)(O)c1ccccc1
OBSERVED_RESULT: inactive
//
MOLECULE: CN/C(=C\[N+](=O)[O-])NCCSCc1csc(CN(C)C)n1
OBSERVED_RESULT: inactive
//
MOLECULE: O=C(O)c1ccc(S(=O)(=O)N(Cl)Cl)cc1
OBSERVED_RESULT: inactive
//
MOLECULE: CC1(C)CC(N)CC(C)(CN)C1 (stereo unspecified)
OBSERVED_RESULT: inactive
//
MOLECULE: O=C(O)Cn1c(=O)n(Cc2ccc(Br)cc2F)c(=O)c2ccc(Cl)cc21
OBSERVED_RESULT: inactive
//
MOLECULE: CCCCCCCCCCN
OBSERVED_RESULT: inactive
//
MOLECULE: OCc1cccc(Oc2ccccc2)c1
OBSERVED_RESULT: inactive
//
MOLECULE: COc1cc(OC)c(C(=O)CCCN2CCCC2)c(OC)c1
OBSERVED_RESULT: inactive
